Data origin, for the record: the supplement of paper PMC13380429

- System: HepG2
- Test description: cell viability relative to DMSO; higher = less toxic
- Protocol conditions: 72 h; 1000 nM
Listing: cell viability of selected compounds
Quantity: cell viability (%)

[[record]]
compound = "CS(=O)(=O)c1ccc([C@@H](O)[C@@H](CF)NC(=O)C(Cl)Cl)cc1"
quantity = "cell viability"
units = "%"
reported = 93.1

[[record]]
compound = "CCCN1CCC[C@@H]2Cc3nc(N)ncc3C[C@H]21"
quantity = "cell viability"
units = "%"
reported = 91.8

[[record]]
compound = "CCc1cnc(N2CCC(c3nc(COc4ccc(-n5cnnn5)cc4)cs3)CC2)nc1"
quantity = "cell viability"
units = "%"
reported = 99.7

[[record]]
compound = "O=C(CCCCC(=O)Nc1c(I)cc(I)c(C(=O)O)c1I)Nc1c(I)cc(I)c(C(=O)O)c1I [iodipamide]"
quantity = "cell viability"
units = "%"
reported = 101

[[record]]
compound = "Cc1ncc(-c2ccnc(Nc3ccc(S(C)(=O)=O)cc3)n2)n1C(C)C"
quantity = "cell viability"
units = "%"
reported = 77.3

